Assay: Metabolic stability test, RLM
Type: in vitro ADME
Conditions: rat, liver microsomes, pH 7.4, read-out: Cl (mL/min/kg) RLM
Give measured CLint scaled at 1 μM for each item. Keep answers brief.
The reply should contain only the number, in mL/min/kg.

Q: CLint scaled at 1 μM for "CC1(COc2cc3nccc(Nc4ccc5scnc5c4)c3cc2P(C)(C)=O)COC1" ?
Ans: 63.9

Q: What about this molecule? "CP(C)(=O)c1cc2c(Nc3ccc4scnc4c3)ccnc2cc1O[C@H]1CCOC1"
Ans: 38.6

Q: What about this molecule? "CP(C)(=O)c1cc2c(Nc3ccc4scnc4c3)ccnc2cc1OCCO"
Ans: 17

Q: What about this molecule? "COCCOc1cc2nccc(Nc3ccc4scnc4c3)c2cc1P(C)(C)=O"
Ans: 25.9

Q: What about this molecule? "CP(C)(=O)c1cc2c(Nc3ccc4scnc4c3)ccnc2cc1O[C@@H]1CCOC1"
Ans: 49.5

Q: What about this molecule? "CP(C)(=O)c1cc2c(Nc3ccc4scnc4c3)ccnc2cc1OC1COC1"
Ans: 16.9

Q: What about this molecule? "COc1cc2nccc(Nc3ccc4scnc4c3)c2cc1P(C)(C)=O"
Ans: 25.9

Q: What about this molecule? "CP(C)(=O)c1cc2c(Nc3ccc4scnc4c3)ccnc2cc1-c1cnn(C2CCNCC2)c1"
Ans: 31.6

###

Give measured AUC for each item. Keep answers brief.
Experiment: Pharmacokinetic evaluation in mice
Format: in vivo
Conditions: male, mouse, plasma, iv, i.v. 2 mg/kg
The reply should contain only the number, in ng·h/mL.

Q: AUC for "CP(C)(=O)c1cc2c(Nc3ccc4scnc4c3)ccnc2cc1OC(F)F" ?
Ans: 6510

Q: What about this compound? "CP(C)(=O)c1cc2c(Nc3ccc4scnc4c3)ccnc2cc1OC(F)(F)F"
Ans: 22600

Q: What about this compound? "COc1cc2nccc(Nc3ccc4scnc4c3)c2cc1P(C)(C)=O"
Ans: 2990

###

Assay: Caco-2 permeability test
Format: in vitro ADME
Conditions: human, Caco-2, pH 7.4; B-A
Give measured Papp B→A at 90 min for each item. Keep answers brief.
The reply should contain only the number, in ×10⁻⁶ cm/s.

Q: Papp B→A at 90 min for "CP(C)(=O)c1cc2c(Nc3ccc4scnc4c3)ccnc2cc1-c1cnn(C2CCNCC2)c1" ?
Ans: 0.27

Q: What about this compound? "COc1cc2nccc(Nc3ccc4scnc4c3)c2cc1P(C)(C)=O"
Ans: 33

Q: What about this compound? "CP(C)(=O)c1cc2c(Nc3ccc4scnc4c3)ccnc2cc1O[C@H]1CCOC1"
Ans: 35.9

###

Assay: Protein binding test (dialysis), dog
Format: in vitro ADME
Settings: dog plasma, 1 μM
reportedEndpoint: fraction unbound at 5 h, 1 μM

Q: fraction unbound at 5 h, 1 μM for "CP(C)(=O)c1cc2c(Nc3ccc4scnc4c3)ccnc2cc1O[C@H]1CCOC1" ?
Ans: 0.165

Q: What about this compound? "COc1cc2nccc(Nc3ccc4scnc4c3)c2cc1P(C)(C)=O"
Ans: 0.138

Q: What about this compound? "CP(C)(=O)c1cc2c(Nc3ccc4scnc4c3)ccnc2cc1O[C@@H]1CCOC1"
Ans: 0.129

Q: What about this compound? "CP(C)(=O)c1cc2c(Nc3ccc4scnc4c3)ccnc2cc1OC1COC1"
Ans: 0.145

Q: What about this compound? "CP(C)(=O)c1cc2c(Nc3ccc4scnc4c3)ccnc2cc1OC(F)F"
Ans: 0.05

Q: What about this compound? "CP(C)(=O)c1cc2c(Nc3ccc4scnc4c3)ccnc2cc1OC(F)(F)F"
Ans: 0.01
